tested on: Mus musculus; test: Induction of IL13 secretion in BALB/c mouse serum at 2 ug, iv after 2 hrs relative to control; format: functional
Reported Activity values follow for various compounds
Form rule: numeric answer, no unit written next to it.

Past entries and their recorded results:
Chemical structure: CCCCCCCCCCCCCCCCCCCCCCCCCC(=O)N[C@@H](CO[C@H]1O[C@H](CO)[C@H](O)[C@H](O)[C@H]1O)[C@H](O)[C@H](O)CCCCCCCCCCCCCC
Activity: 15.1
--
Chemical structure: CCCCCCCCCCCCCC[C@@H](O)[C@@H](O)[C@H](CO[C@H]1O[C@H](CO)[C@H](O)[C@H](O)[C@H]1O)NC(=O)CCCCCCCCCCCCC
Activity: 0.9
--
Chemical structure: CCCCCCCCCCCCCCCCCCCCCCCCCC(=O)N[C@@H](CO[C@H]1O[C@H](C(=O)O)[C@H](O)[C@H](O)[C@H]1O)[C@H](O)[C@H](O)CCCCCCCCCCCCCC
Activity: 1.7
--
Chemical structure: CCCCCCCCCCCCCCC[C@@H](O)[C@H](CO[C@H]1O[C@H](C(=O)O)[C@H](O)[C@H](O)[C@H]1O)NC(=O)CCCCCCCCCCCCC
Activity: 2.3
--
Chemical structure: CCCCCCCCCCCCCC[C@@H](O)[C@@H](O)[C@H](CO[C@H]1O[C@H](CO)[C@H](O)[C@H](O)[C@H]1O)NC(=O)CCCCCCCc1ccccc1
Activity: 10.9
--
Chemical structure: CCCCCCCCCCCCCC[C@@H](O)[C@@H](O)[C@H](CO[C@H]1O[C@H](CO)[C@H](O)[C@H](O)[C@H]1O)NC(=O)CCCCCCCCCCc1ccccc1
Activity: 7.7

Query: Answer with the recorded Activity for the compound listed here: CCCCCCCCCCCCCCCCCCCCCCCCCC(=O)N[C@@H](CO[C@H]1O[C@H](CO)[C@H](O)[C@H](O)[C@H]1O)[C@H](O)[C@H](O)CCc1ccccc1
Response: 12.6

Query: Answer with the recorded Activity for the compound listed here: CCCCCCCCCCCCCCCCCCCCCCCCCC(=O)N[C@@H](CO[C@H]1O[C@H](CO)[C@H](O)[C@H](OS(=O)(=O)[O-])[C@H]1O)[C@H](O)[C@H](O)CCCCCCCCCCCCCC.[Na+]
Response: 2.4

---

assay: Induction of IL12p40 secretion in human CD161+ CD3+ NKT cells at 10 ug/ml after 18 hrs relative to basal level; assay type: functional
# note: exactly 2 is not below, so it is false (0); use true (1) for Activity strictly under it

Worked examples follow.
Chemical structure: CCCCCCCCCCCCCC[C@@H](O)[C@@H](O)[C@H](CO[C@H]1O[C@H](CO)[C@H](O)[C@H](O)[C@H]1O)NC(=O)CCCCCCCCCc1ccccc1
Classification: true (1)
--
Chemical structure: CCCCCCCCCCCCCCCCCCCCCCCCCC(=O)N[C@@H](CS[C@H]1O[C@H](CO)[C@H](O)[C@H](O)[C@H]1O)[C@H](O)[C@H](O)CCCCCCCCCCCCCC
Classification: true (1)

Consider the record given below.
Query: For CCCCCCCCCCCCCC[C@@H](O)[C@@H](O)[C@H](CO[C@H]1O[C@H](CO)[C@H](O)[C@H](O)[C@H]1O)NC(=O)CCCCCc1ccccc1 , is the recorded Activity below the cut-off of 2?
Response: false (0)
